Entries and their measured Ki follow.
molecular target: porcine pancreatic kallikrein (PPK) (Sus scrofa); experiment: Inhibition of porcine pancreatic kallikrein, cleavage of chromogenic substrate S-2266 (KI); assay type: biochemical; conditions: Table 4, Pro-X-Arg-Ser-Val-Gln; read-out: KI PPK
Sequence (P00752 8-87 limits assumed): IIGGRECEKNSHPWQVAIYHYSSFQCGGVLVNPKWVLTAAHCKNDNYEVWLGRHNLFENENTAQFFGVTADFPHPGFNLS
Sequence (P00752 95-246 limits assumed): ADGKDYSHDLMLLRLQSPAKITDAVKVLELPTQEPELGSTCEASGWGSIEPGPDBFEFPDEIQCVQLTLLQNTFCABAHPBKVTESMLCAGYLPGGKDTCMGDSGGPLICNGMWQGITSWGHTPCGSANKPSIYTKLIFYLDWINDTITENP
Non-standard residues stand in square brackets, D forms with d. Residues, ends and D or L forms follow the SMILES beside them. 1Nal = N[C@@H](Cc1cccc2ccccc12)C(=O)O; 2Nal = N[C@@H](Cc1ccc2ccccc2c1)C(=O)O; Phe(2-F) = N[C@@H](Cc1ccccc1F)C(=O)O; hPhe = N[C@@H](CCc1ccccc1)C(=O)O; 2Thi = N[C@@H](Cc1cccs1)C(=O)O; Cha = N[C@@H](CC1CCCCC1)C(=O)O; Phg = N[C@H](C(=O)O)c1ccccc1
Answer in µM, number only, no unit symbol.

CC(C)[C@H](NC(=O)[C@H](CO)NC(=O)[C@H](CCCNC(=N)N)NC(=O)[C@H](Cc1c[nH]c2ccccc12)NC(=O)[C@@H]1CCCN1)C(=O)N[C@@H](CCC(N)=O)C(N)=O [KCH-11] (H-PWRSVQ-NH2) : 230

What does the data say about its Ki? Entry: CC(C)[C@H](NC(=O)[C@H](CO)NC(=O)[C@H](CCCNC(=N)N)NC(=O)[C@H](CC1CCCCC1)NC(=O)[C@@H]1CCCN1)C(=O)N[C@@H](CCC(N)=O)C(N)=O [KCH-10] (H-P[Cha]RSVQ-NH2)
85

What about this compound? CC(C)[C@H](NC(=O)[C@H](CO)NC(=O)[C@H](CCCNC(=N)N)NC(=O)[C@H](CCc1ccccc1)NC(=O)[C@@H]1CCCN1)C(=O)N[C@@H](CCC(N)=O)C(N)=O [KCH-2] (H-P[hPhe]RSVQ-NH2)
402

Also need CC(C)[C@H](NC(=O)[C@H](CO)NC(=O)[C@H](CCCNC(=N)N)NC(=O)[C@H](Cc1cccs1)NC(=O)[C@@H]1CCCN1)C(=O)N[C@@H](CCC(N)=O)C(N)=O [KCH-4] (H-P[2Thi]RSVQ-NH2) , thanks.
109

Also CC(C)[C@H](NC(=O)[C@H](CO)NC(=O)[C@H](CCCNC(=N)N)NC(=O)[C@H](Cc1cccc2ccccc12)NC(=O)[C@@H]1CCCN1)C(=O)N[C@@H](CCC(N)=O)C(N)=O [KCH-7] (H-P[1Nal]RSVQ-NH2) , if possible.
130

Then this compound: CC(C)[C@H](NC(=O)[C@H](CO)NC(=O)[C@H](CCCNC(=N)N)NC(=O)[C@H](Cc1ccccc1F)NC(=O)[C@@H]1CCCN1)C(=O)N[C@@H](CCC(N)=O)C(N)=O [KCH-1] (H-P[Phe(2-F)]RSVQ-NH2)
124

Same question, CC(C)[C@H](NC(=O)[C@H](CO)NC(=O)[C@H](CCCNC(=N)N)NC(=O)[C@@H](NC(=O)[C@@H]1CCCN1)c1ccccc1)C(=O)N[C@@H](CCC(N)=O)C(N)=O [KCH-5] (H-P[Phg]RSVQ-NH2) this time
1320

Try the compound CC(C)[C@H](NC(=O)[C@H](CO)NC(=O)[C@H](CCCNC(=N)N)NC(=O)[C@H](Cc1ccc2ccccc2c1)NC(=O)[C@@H]1CCCN1)C(=O)N[C@@H](CCC(N)=O)C(N)=O [KCH-6] (H-P[2Nal]RSVQ-NH2)
133
